system_tested: Cdk9/cyclinT1 (Homo sapiens (Human))
Sequence (P50750 whole entry): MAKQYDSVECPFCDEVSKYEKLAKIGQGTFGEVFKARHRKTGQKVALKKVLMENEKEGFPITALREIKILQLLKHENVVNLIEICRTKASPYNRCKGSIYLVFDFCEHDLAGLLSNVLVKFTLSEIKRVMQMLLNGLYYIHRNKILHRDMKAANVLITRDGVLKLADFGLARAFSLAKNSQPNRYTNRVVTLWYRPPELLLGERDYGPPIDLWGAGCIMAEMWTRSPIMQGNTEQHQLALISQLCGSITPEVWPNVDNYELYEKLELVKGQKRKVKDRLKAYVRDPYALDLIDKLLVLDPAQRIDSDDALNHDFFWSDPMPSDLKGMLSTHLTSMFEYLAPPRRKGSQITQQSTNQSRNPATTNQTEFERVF
Sequence (O60563 whole entry partner): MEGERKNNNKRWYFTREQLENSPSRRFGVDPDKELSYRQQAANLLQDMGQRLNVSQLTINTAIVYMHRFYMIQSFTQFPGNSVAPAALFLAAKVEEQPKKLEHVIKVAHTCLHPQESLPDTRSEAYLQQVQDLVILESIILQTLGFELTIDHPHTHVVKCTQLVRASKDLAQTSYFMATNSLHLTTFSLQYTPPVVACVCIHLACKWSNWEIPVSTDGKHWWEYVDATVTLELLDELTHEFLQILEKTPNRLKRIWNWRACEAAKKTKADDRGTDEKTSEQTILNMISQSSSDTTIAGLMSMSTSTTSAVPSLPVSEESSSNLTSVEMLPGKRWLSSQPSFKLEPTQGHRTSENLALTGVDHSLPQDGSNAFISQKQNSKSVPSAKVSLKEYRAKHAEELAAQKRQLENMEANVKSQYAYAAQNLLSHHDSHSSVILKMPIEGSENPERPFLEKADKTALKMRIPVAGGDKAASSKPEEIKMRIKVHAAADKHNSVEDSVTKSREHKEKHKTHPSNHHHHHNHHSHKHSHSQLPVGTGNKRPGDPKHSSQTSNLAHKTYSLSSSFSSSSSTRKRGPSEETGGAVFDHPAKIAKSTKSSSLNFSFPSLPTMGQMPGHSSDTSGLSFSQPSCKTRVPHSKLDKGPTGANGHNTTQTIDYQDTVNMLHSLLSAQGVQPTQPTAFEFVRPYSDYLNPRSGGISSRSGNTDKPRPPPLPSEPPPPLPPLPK
assay_overview: Cdk9/CyclinT1 IMAP Protocol (fluorescence polarization kinase assay)
cond: Table 2; generated using one of the two Cdk9/cyclinT1 assays (IMAP or Alpha Screen), not specified which; unit inferred
property_label: IC50 (nM)

Recorded results for 3 molecules are shown here.
[
  {
    "molecule": "Fc1cccc(CNc2cccc(-c3cc(NC4CCCC4)ncc3Cl)n2)c1 [Compound 140]",
    "system_tested": "Cdk9/cyclinT1 (Homo sapiens (Human))",
    "IC50 / nM": 12.6
  },
  {
    "molecule": "O[C@@H]1CC[C@H](Nc2cc(-c3cccc(NCc4cccc(F)c4)n3)c(Cl)cn2)C1 [Compound 184]",
    "system_tested": "Cdk9/cyclinT1 (Homo sapiens (Human))",
    "IC50 / nM": 9.11
  },
  {
    "molecule": "N[C@H]1CC[C@H](Nc2cc(-c3cncc(NCC4CCOCC4)n3)c(Cl)cn2)CC1 [Compound 203]",
    "system_tested": "Cdk9/cyclinT1 (Homo sapiens (Human))",
    "IC50 / nM": 7.94
  }
]

I: CN(C)CC(=O)NC[C@H]1CC[C@H](Nc2cc(-c3cccc(NCc4cccc(F)c4)n3)c(Cl)cn2)CC1 [Compound 82]
II: O=C(NC[C@H]1CC[C@H](Nc2cc(-c3cccc(NCc4cccc(F)c4)n3)c(Cl)cn2)CC1)c1cccnc1 [Compound 84]
Ask | Between I and II , which one shows the larger IC50 value? Label of pick, please.
Reply | II
